Data origin, for the record: paper PMC3356272

tested on: Vero-B cells; settings: green monkey
measured attribute: CC50

# input Output CC50 of CC(C)(C)OC(=O)NC1C(=O)NC2Cc3ccc(c(Cl)c3)Oc3cc4cc(c3O)Oc3ccc(cc3Cl)C(O)C3NC(=O)C(NC(=O)C4NC(=O)C(NC2=O)c2cc(O)cc(c2)Oc2cc1ccc2O)c1ccc(O)c(c1)-c1c(O)cc(O)cc1C(C(=O)NC1C2CC4CC(C2)CC1C4)NC3=O (stereo not shown)
# output > 100 µM
